Every entry's value here was drawn from patent US9302999B2.

# System: chickweed (common chickweed, Stellaria media)
# Assay Explanation: Test D pre-/postemergence: chickweed
# Type: in vivo
# Assay Setup: Preemergence, 16 g ai/ha; scale 0 to 100, 0 no effect, 100 complete control
Documented Plant response rating, Chickweed across a set of compounds
Number only, no unit.

Some solved entries appear below for comparison.
Line Notation | Study Target | Plant response rating, Chickweed
CCOc1nn(-c2ccc(F)cc2)nc1Cc1ccnc(C(F)(F)F)c1 | chickweed (common chickweed, Stellaria media) | 50
Cc1nn(-c2ccc(F)c(C(F)(F)F)c2)nc1Cc1ccnc(C(F)(F)F)c1 | chickweed (common chickweed, Stellaria media) | 50
CCc1nn(-c2ccc(C(F)(F)F)cc2)nc1Cc1ccnc(C(F)(F)F)c1 | chickweed (common chickweed, Stellaria media) | 35

Shift focus to the following entry.
Determine its reported Plant response rating, Chickweed: `Cc1nn(-c2ccc(C(F)(F)F)cc2)nc1Oc1ccnc(C(F)(F)F)c1`
20
